Origin of the recorded values: ChEMBL document CHEMBL4229451

The following compounds are shown together with reported pKd values.
molecular target: Estrogen receptor beta (Homo sapiens, UniProt Q92731, C334S/C369S/C481S); assay: Binding affinity to recombinant human ERbeta LBD (259 to 498 residues) C334S/C369S/C481S triple mutant expressed in Escherichia coli BL21(DE3) by surface plasmon resonance method
Sequence (Q92731 whole entry C334S/C369S/C481S, the tested form may be a part): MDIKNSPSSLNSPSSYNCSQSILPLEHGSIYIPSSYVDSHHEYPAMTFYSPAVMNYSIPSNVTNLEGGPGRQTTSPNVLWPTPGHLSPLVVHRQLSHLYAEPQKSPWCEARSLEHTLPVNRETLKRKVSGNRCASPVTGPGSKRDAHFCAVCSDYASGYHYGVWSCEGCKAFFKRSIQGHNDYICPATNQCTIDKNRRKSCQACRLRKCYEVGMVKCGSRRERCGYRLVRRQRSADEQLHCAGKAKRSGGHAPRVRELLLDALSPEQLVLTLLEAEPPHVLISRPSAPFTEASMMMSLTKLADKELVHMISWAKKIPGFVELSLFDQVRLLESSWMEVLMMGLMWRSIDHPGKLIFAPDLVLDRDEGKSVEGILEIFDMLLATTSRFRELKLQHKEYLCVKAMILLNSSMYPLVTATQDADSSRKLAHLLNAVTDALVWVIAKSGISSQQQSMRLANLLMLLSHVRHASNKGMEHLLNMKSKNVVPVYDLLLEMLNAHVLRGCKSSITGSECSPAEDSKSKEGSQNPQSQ
Positions of bridges follow the written chain, without caps; N, C: chain ends. Non-standard residues stand in square brackets, D forms with d. Residues, ends and D or L forms follow the SMILES beside them. S5 = C=CCCC[C@](C)(N)C(=O)O
Scale note: pKd = -log10(concentration in M).

# compound, endpoint-value
rows = [
    ("CC[C@H](C)[C@H](NC(=O)[C@H](CCCCN)NC(=O)[C@]1(C)CCC/C=C\\CCC[C@](C)(NC(C)=O)C(=O)N[C@@H](CCCCN)C(=O)N[C@@H](CCC(=O)O)C(=O)N[C@@H](CCCCN)C(=O)N1)C(=O)N[C@@H](CC(C)C)C(=O)N[C@@H](Cc1cnc[nH]1)C(=O)N[C@@H](CCC(N)=O)C(=O)N[C@@H](CC(C)C)C(=O)N[C@@H](CC(C)C)C(=O)N[C@@H](CCC(N)=O)C(=O)N[C@@H](CC(=O)O)C(=O)N[C@@H](CO)C(N)=O (Ac-[S5]KEK[S5]KILHQLLQDS-NH2; staple (Z) 1-5)", 5.08),
]

In the following, a different compound is considered.
Lab note: CC[C@H](C)[C@H](NC(=O)[C@H](CCCCN)NC(=O)[C@H](Cc1cnc[nH]1)NC(C)=O)C(=O)N[C@@H](CC(C)C)C(=O)N[C@@H](Cc1cnc[nH]1)C(=O)N[C@@H](CCC(N)=O)C(=O)N[C@@H](CC(C)C)C(=O)N[C@@H](CC(C)C)C(=O)N[C@@H](CCC(N)=O)C(=O)N[C@@]1(C)CCC/C=C\CCC[C@@](C)(C(=O)N[C@H](C(N)=O)C(C)C)NC(=O)[C@H](CO)NC(=O)[C@H](CO)NC(=O)[C@H](CO)NC1=O (Ac-HKILHQLLQ[S5]SSS[S5]V-NH2; staple (Z) 10-14) gave pKd of 5.55
